# tested target: UniProtKB Q9NZQ7
# assay: PD-L1 whole blood internalization assay
# condition context: 24 HR, PD-L1 expression on CD14+ cells, human interferon γ
pIC50: −log10 of the molar value.
Recorded pIC50, one value per entry.

// known answers, use as guide
| smiles representation | pIC50 |
| --- | --- |
| Cc1c(NC(=O)c2nc3c(n2C)CCN(CCc2ccc(C(=O)O)cc2)C3)cccc1-c1cccc(NC(=O)c2nc3c(n2C)CCN(CCC24CCC(C(=O)O)(CC2)C4)C3)c1Cl | 7.00 to 8.00 |
| Cc1c(NC(=O)c2nc3c(n2C)CCN(C[C@H](C)O)C3)cccc1-c1cccc(NC(=O)c2nc3c(n2C)CCN(CCC24CCC(C(=O)O)(CC2)C4)C3)c1Cl | 7.00 to 8.00 |

Proceeding to the next compound to report its pIC50.
So what pIC50 did Cn1c(C(=O)Nc2cccc(-c3cccc(NC(=O)c4nc5c(n4C)CCN(CC[C@H]4CC[C@H](C(=O)O)CC4)C5)c3Cl)c2Cl)nc2c1CCN(CCC13CCC(C(=O)O)(CC1)C3)C2 get with UniProtKB Q9NZQ7?
7.00 to 8.00

====

Recorded pIC50, one value per entry.
# tested target: PD-L1 (Homo sapiens (Human), UniProt Q9NZQ7)
# Sequence (Q9NZQ7 19-290): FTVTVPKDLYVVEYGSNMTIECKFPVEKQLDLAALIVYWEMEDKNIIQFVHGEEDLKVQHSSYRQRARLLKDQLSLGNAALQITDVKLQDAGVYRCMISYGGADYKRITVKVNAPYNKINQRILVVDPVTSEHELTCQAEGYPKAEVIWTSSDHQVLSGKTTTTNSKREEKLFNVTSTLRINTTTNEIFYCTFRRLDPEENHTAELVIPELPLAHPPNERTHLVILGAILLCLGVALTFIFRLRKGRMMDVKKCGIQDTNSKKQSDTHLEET
# assay: PD-L1 whole blood internalization assay
# condition context: 24 HR, PD-L1 expression on CD14+ cells, human interferon γ
# Procedure: Example D. PD-L1 Whole Blood Internalization Assay To determine PD-L1 internalization in human whole blood, normal human blood (Biological Specialty Corp, Colmar. Pa.) was incubated in the presence or absence of a concentration range of test compounds and 1 ng/ml human interferon γ (R&D Systems Inc. Minn. […] Cells were gated on CD14+(BD Biosciences) and PD-L1 expression determined by mean fluorescence intensity (MFI) (BD LSRFortessa™ X-20). […]
pIC50: −log10 of the molar value.

// known answers, use as guide
| molecule | property label | value measured |
| --- | --- | --- |
| Cc1c(NC(=O)c2nc3c(n2C)CCN(CCC24CCC(C(=O)O)(CC2)C4)C3)cccc1-c1cccc(NC(=O)c2nc3c(n2C)CCN(CCO)C3)c1Cl | pIC50 | 7.00 to 8.00 |
| Cc1c(NC(=O)c2nc3c(n2C)CCN(C2CCC(O)CC2)C3)cccc1-c1cccc(NC(=O)c2nc3c(n2C)CCN(CCC24CCC(C(=O)O)(CC2)C4)C3)c1Cl (single isomer, unassigned) | pIC50 | 7.00 to 8.00 |
| Cn1c(C(=O)Nc2cccc(-c3cccc(NC(=O)c4nc5c(n4C)CCN(CC(C)(C)C(=O)O)C5)c3Cl)c2Cl)nc2c1CCN(CCC13CCC(C(=O)O)(CC1)C3)C2 | pIC50 | 7.00 to 8.00 |
| Cn1c(C(=O)Nc2cccc(-c3cccc(NC(=O)c4nc5c(n4C)CCN(C[C@@H](O)CO)C5)c3Cl)c2Cl)nc2c1CCN(CCC13CCC(C(=O)O)(CC1)C3)C2 | pIC50 | 6.30 to 7.00 |
| Cc1c(NC(=O)c2nc3c(n2C)CCN(CCC24CCC(C(=O)O)(CC2)C4)C3)cccc1-c1cccc(NC(=O)c2nc3c(n2C)CCN(C[C@H](C)O)C3)c1Cl | pIC50 | 7.00 to 8.00 |
| Cc1c(NC(=O)c2nc3c(n2C)CCN(CCC24CCC(C(=O)O)(CC2)C4)C3)cccc1-c1cccc(NC(=O)c2nc3c(n2C)CCN(CC24CCC(C(=O)O)(CC2)C4)C3)c1Cl | pIC50 | 6.30 to 7.00 |

// query pIC50 value for entry Cn1c(C(=O)Nc2cccc(-c3cccc(NC(=O)c4nc5c(n4C)CCN(CC4(C(=O)O)CC4)C5)c3Cl)c2Cl)nc2c1CCN(CCC13CCC(C(=O)O)(CC1)C3)C2
7.00 to 8.00

// query pIC50 value for entry Cn1c(C(=O)Nc2cccc(-c3cccc(NC(=O)c4nc5c(n4C)CCN(C4CCC(O)CC4)C5)c3Cl)c2Cl)nc2c1CCN(CCC13CCC(C(=O)O)(CC1)C3)C2 (single isomer, unassigned) [60 (compound 2)]
7.00 to 8.00

// query pIC50 value for entry Cc1c(NC(=O)c2nc3c(n2C)CCN(CCC24CCC(C(=O)O)(CC2)C4)C3)cccc1-c1cccc(NC(=O)c2nc3c(n2C)CCNC3)c1Cl
7.00 to 8.00

// query pIC50 value for entry Cn1c(C(=O)Nc2cccc(-c3cccc(NC(=O)c4nc5c(n4C)CCN(C4CCN(S(N)(=O)=O)CC4)C5)c3Cl)c2Cl)nc2c1CCN(CCC13CCC(C(=O)O)(CC1)C3)C2
6.30 to 7.00

// query pIC50 value for entry Cn1c(C(=O)Nc2cccc(-c3cccc(NC(=O)c4nc5c(n4C)CCN(CC46CC(C(=O)O)(C4)C6)C5)c3Cl)c2Cl)nc2c1CCN(CCC13CCC(C(=O)O)(CC1)C3)C2
7.00 to 8.00

// query pIC50 value for entry C[C@@H](O)CN1CCc2c(nc(C(=O)Nc3cccc(-c4cccc(NC(=O)c5nc6c(n5C)CCN(CCC57CCC(C(=O)O)(CC5)C7)C6)c4Cl)c3Cl)n2C)C1
7.00 to 8.00

// query pIC50 value for entry Cn1c(C(=O)Nc2cccc(-c3cccc(NC(=O)c4nc5c(n4C)CCN(C4CCOCC4)C5)c3Cl)c2Cl)nc2c1CCN(CCC13CCC(C(=O)O)(CC1)C3)C2
7.00 to 8.00

// query pIC50 value for entry Cc1c(NC(=O)c2nc3c(n2C)CCN(CCC24CCC(C(=O)O)(CC2)C4)C3)cccc1-c1cccc(NC(=O)c2nc3c(n2C)CCN(C2CCOCC2)C3)c1C
6.30 to 7.00

// query pIC50 value for entry Cn1c(C(=O)Nc2cccc(-c3cccc(NC(=O)c4nc5c(n4C)CCN(CCC46CCC(C(=O)O)(CC4)C6)C5)c3Cl)c2Cl)nc2c1CCN(CCC13CCC(C(=O)O)(CC1)C3)C2
7.00 to 8.00

// query pIC50 value for entry Cc1c(NC(=O)c2nc3c(n2C)CCN(CCC24CCC(C(=O)O)(CC2)C4)C3)cccc1-c1cccc(NC(=O)c2nc3c(n2C)CCN(CCC24CCC(C(=O)O)(CC2)C4)C3)c1C
6.30 to 7.00

// query pIC50 value for entry Cn1c(C(=O)Nc2cccc(-c3cccc(NC(=O)c4nc5c(n4C)CCN(C[C@H](O)CO)C5)c3Cl)c2Cl)nc2c1CCN(CCC13CCC(C(=O)O)(CC1)C3)C2
7.00 to 8.00

// query pIC50 value for entry Cc1c(NC(=O)c2nc3c(n2C)CCN(CCC24CCC(C(=O)O)(CC2)C4)C3)cccc1-c1cccc(NC(=O)c2nc3c(n2C)CCN(CCc2ccc(C(=O)O)cc2)C3)c1Cl
6.30 to 7.00

// query pIC50 value for entry Cc1c(NC(=O)c2nc3c(n2C)CCN(C2CCN(C(N)=O)CC2)C3)cccc1-c1cccc(NC(=O)c2nc3c(n2C)CCN(CCC24CCC(C(=O)O)(CC2)C4)C3)c1Cl
7.00 to 8.00

// query pIC50 value for entry Cn1c(C(=O)Nc2cccc(-c3cccc(NC(=O)c4nc5c(n4C)CCN(CC46CCC(C(=O)O)(CC4)C6)C5)c3Cl)c2Cl)nc2c1CCN(CCC13CCC(C(=O)O)(CC1)C3)C2
7.00 to 8.00

====

# tested target: PD-L1 (Homo sapiens (Human), UniProt Q9NZQ7)
# assay: PD-L1 whole blood internalization assay
# condition context: 24 HR, PD-L1 expression on CD14+ cells, human interferon γ
property label: IC50

// known answers, use as guide
| molecule | property label | value measured |
| --- | --- | --- |
| Cn1c(C(=O)Nc2cccc(-c3cccc(NC(=O)c4nc5c(n4C)CCN(C4CCC(O)CC4)C5)c3Cl)c2Cl)nc2c1CCN(CCC13CCC(C(=O)O)(CC1)C3)C2 (single isomer, unassigned) [60 (compound 1)] | IC50 | 10 to 100 nM |
| Cc1c(NC(=O)c2nc3c(n2C)CCN(CCC24CCC(C(=O)O)(CC2)C4)C3)cccc1-c1cccc(NC(=O)c2nc3c(n2C)CCN(C[C@@H](C)O)C3)c1Cl | IC50 | 10 to 100 nM |
| Cc1c(NC(=O)c2nc3c(n2C)CCN(C2CCOCC2)C3)cccc1-c1cccc(NC(=O)c2nc3c(n2C)CCN(CCC24CCC(C(=O)O)(CC2)C4)C3)c1Cl | IC50 | 10 to 100 nM |
| Cc1c(NC(=O)c2nc3c(n2C)CCN(CCC24CCC(C(=O)O)(CC2)C4)C3)cccc1-c1cccc(NC(=O)c2nc3c(n2C)CCN(C[C@H](C)O)C3)c1C | IC50 | 100 to 500 nM |

Proceeding to the next molecule to report its IC50.
// query IC50 value for entry C[C@H](O)CN1CCc2c(nc(C(=O)Nc3cccc(-c4cccc(NC(=O)c5nc6c(n5C)CCN(CCC57CCC(C(=O)O)(CC5)C7)C6)c4Cl)c3Cl)n2C)C1
10 to 100 nM
